Here, each record is paired with measured selectivity ratio data.
Method Notes: Selectivity index, ratio of IC50 for cytotoxicity against human L02 cells to IC50 for antiproliferative activity against human MDA-MB-231 cells
Assay type: toxicity, cell-based
Assay Conditions: L02 cells versus MDA-MB-231 cells, read-out: Ratio IC50
Measure Name: selectivity ratio

[
  {
    "Compound": "CCN(CC)c1ccc2cc(C(=O)OCCCCCOc3cc4ccc(=O)oc4cc3OCCCCCCOc3no[n+]([O-])c3S(=O)(=O)c3ccccc3)c(=O)oc2c1",
    "Recorded Number": 1490
  },
  {
    "Compound": "O=c1ccc2cc(OCCCCOc3no[n+]([O-])c3S(=O)(=O)c3ccccc3)c(OCCCCOc3no[n+]([O-])c3S(=O)(=O)c3ccccc3)cc2o1",
    "Recorded Number": 134
  },
  {
    "Compound": "O=c1ccc2cc(O)c(OCCCCCCOc3no[n+]([O-])c3S(=O)(=O)c3ccccc3)cc2o1",
    "Recorded Number": 47.8
  }
]

----------
Tested on: MDA-MB-231
Method Notes: Antiproliferative activity against human MDA-MB-231 cells assessed as inhibition of cell growth measured after 48 hrs in presence of 7-(diethylamino)-2-oxo-2H-chromene-3-carboxylic acid by MTT assay
Format: functional, cell-based
Assay Conditions: MDA-MB-231, 48 h
pIC50: −log10 of the molar value.
Measure Name: pIC50

[
  {
    "Compound": "O=c1ccc2cc(O)c(OCCCCCCOc3no[n+]([O-])c3S(=O)(=O)c3ccccc3)cc2o1",
    "Recorded Number": 6.89
  }
]

----------
Method Notes: Cytotoxicity against human MCF-10A cells assessed as inhibition in cell growth measured after 48 hrs by MTT assay
Assay type: toxicity, cell-based
IC50 at 48 h reference

[
  {
    "Compound": "COc1cccc2c1C(=O)c1c(O)c3c(c(O)c1C2=O)C[C@@](O)(C(=O)CO)C[C@@H]3O[C@H]1C[C@H](N)[C@H](O)[C@H](C)O1",
    "Lt Gt Eq": "=",
    "IC50 at 48 h [µM]": 0.74
  },
  {
    "Compound": "CCN(CC)c1ccc2cc(C(=O)OCCCCCOc3cc4ccc(=O)oc4cc3OCCCCCCOc3no[n+]([O-])c3S(=O)(=O)c3ccccc3)c(=O)oc2c1",
    "Lt Gt Eq": ">",
    "IC50 at 48 h [µM]": 50
  },
  {
    "Compound": "O=c1ccc2cc(O)c(OCCCCCCOc3no[n+]([O-])c3S(=O)(=O)c3ccccc3)cc2o1",
    "Lt Gt Eq": "=",
    "IC50 at 48 h [µM]": 12.6
  },
  {
    "Compound": "O=c1ccc2cc(OCCCCOc3no[n+]([O-])c3S(=O)(=O)c3ccccc3)c(OCCCCOc3no[n+]([O-])c3S(=O)(=O)c3ccccc3)cc2o1",
    "Lt Gt Eq": "=",
    "IC50 at 48 h [µM]": 6.44
  }
]

----------
Method Notes: Cytotoxicity against human L02 cells assessed as inhibition in cell growth measured after 48 hrs by MTT assay
Assay type: toxicity, cell-based
Measured IC50 at 48 h of individual entries

[
  {
    "Compound": "O=c1ccc2cc(OCCCCOc3no[n+]([O-])c3S(=O)(=O)c3ccccc3)c(OCCCCOc3no[n+]([O-])c3S(=O)(=O)c3ccccc3)cc2o1",
    "Units Label": "µM",
    "IC50 at 48 h": 5.64
  },
  {
    "Compound": "O=c1ccc2cc(O)c(OCCCCCCOc3no[n+]([O-])c3S(=O)(=O)c3ccccc3)cc2o1",
    "Units Label": "µM",
    "IC50 at 48 h": 5.73
  },
  {
    "Compound": "COc1cccc2c1C(=O)c1c(O)c3c(c(O)c1C2=O)C[C@@](O)(C(=O)CO)C[C@@H]3O[C@H]1C[C@H](N)[C@H](O)[C@H](C)O1",
    "Units Label": "µM",
    "IC50 at 48 h": 0.6
  },
  {
    "Compound": "CCN(CC)c1ccc2cc(C(=O)OCCCCCOc3cc4ccc(=O)oc4cc3OCCCCCCOc3no[n+]([O-])c3S(=O)(=O)c3ccccc3)c(=O)oc2c1",
    "Units Label": "µM",
    "IC50 at 48 h": 11.9
  }
]

The values you see were collected from ChEMBL document CHEMBL5321282.
